Recorded values, source patent USH1923H.

# System: chickweed
# measurement_notes: preemergence herbicidal activity on chickweed
# Format: in vivo
# recorded_conditions: Stellaria media, pre-emergence, 0.3 Kg/Ha, after 12-17 days, read-out: PREEMERGENCE HERBICIDAL ACTIVITY (% CONTROL) STEME
# Experimental: The (oxaalkyl)phenyl-substituted heterocycles of this invention were tested for pre- and postemergence herbicidal activity using a variety of crops and weeds. […] The preemergence flats were initially subjected to a light water spray. […] After 12-17 days the plants were examined and the phytotoxicity data were recorded. […]
assay_endpoint: activity at 300 g/ha (%)
Response body: numeric value in %, unit text excluded.

Completed entries (count: 2):
INSERT INTO assay_data (compound, assay_endpoint, value_units, reported_measurement) VALUES
  ('CCCCCCNC(=O)OCC(Cl)Cc1cc(-n2nc(C)n(C(F)F)c2=O)c(F)cc1Cl (stereo not drawn)', 'activity at 300 g/ha', '%', 60),
  ('CNC(=O)OCC(Cl)Cc1cc(-n2nc(C)n(C(F)F)c2=O)c(F)cc1Cl (stereo not drawn)', 'activity at 300 g/ha', '%', 100);

Now, please, on to the next compound.
I'd like to know its activity at 300 g/ha. The compound in question is CCNC(=O)OCC(Cl)Cc1cc(-n2nc(C)n(C(F)F)c2=O)c(F)cc1Cl (stereo not drawn) 90

----------
Below, each entry is listed alongside its reported activity at 300 g/ha.
# Test system: corn
# measurement_notes: preemergence herbicidal activity on corn
# Format: in vivo, Zea mays var. Pioneer 3732
# recorded_conditions: Zea mays, pre-emergence, 0.3 Kg/Ha, after 12-17 days, read-out: PREEMERGENCE HERBICIDAL ACTIVITY (% CONTROL) CRN
Response body: numeric value in %, unit text excluded.

Completed entries (count: 2):
INSERT INTO measurements (molecule, reported_measurement) VALUES
  ('Cc1nn(-c2cc(CC(Cl)COC(=O)NC3CCCCC3)c(Cl)cc2F)c(=O)n1C(F)F (stereo not drawn)', 10),
  ('Cn1nc(-c2cc(CC(Cl)C(C)(C)O)c(Cl)cc2F)c(Cl)c1OC(F)F (stereo not drawn)', 40);

API: value(readout=activity at 300 g/ha, system=corn) for record CC(=O)OC(C)(C)C(Cl)Cc1cc(-n2c(=O)cc(C(F)(F)F)n(C)c2=O)c(F)cc1Cl (stereo not drawn) 90
